# assay_overview: in vivo
# test_settings: athymic nude, mouse, po, 10 mg/kg
# Description: Half life in athymic nude mouse at 10 mg/kg, po
observable: half-life (h)
Report the value in h with no unit label.

CC(C)(C)c1cc(NC(=O)Nc2ccc(-c3cn4c(n3)sc3cc(CCCN5CCOCC5)ccc34)cc2)no1 2.3
CCN1CCN(C(=O)c2ccc3c(c2)sc2nc(-c4ccc(NC(=O)Nc5cc(C(C)(C)C)on5)cc4)cn23)CC1 6.7
CC(C)(C)c1cc(NC(=O)Nc2ccc(-c3cn4c(n3)sc3cc(OCCCN5CCN(S(C)(=O)=O)CC5)ccc34)cc2)no1 4.6

Endpoint output: half-life of CC(C)(C)c1cc(NC(=O)Nc2ccc(-c3cn4c(n3)sc3cc(C(=O)O)ccc34)cc2)no1 . Value?
4.5
